Readings of pIC50 for the listed molecules
# tgt: Recombinant human FGFR1 (Homo sapiens, UniProt P11362)
# Sequence (P11362 22-822): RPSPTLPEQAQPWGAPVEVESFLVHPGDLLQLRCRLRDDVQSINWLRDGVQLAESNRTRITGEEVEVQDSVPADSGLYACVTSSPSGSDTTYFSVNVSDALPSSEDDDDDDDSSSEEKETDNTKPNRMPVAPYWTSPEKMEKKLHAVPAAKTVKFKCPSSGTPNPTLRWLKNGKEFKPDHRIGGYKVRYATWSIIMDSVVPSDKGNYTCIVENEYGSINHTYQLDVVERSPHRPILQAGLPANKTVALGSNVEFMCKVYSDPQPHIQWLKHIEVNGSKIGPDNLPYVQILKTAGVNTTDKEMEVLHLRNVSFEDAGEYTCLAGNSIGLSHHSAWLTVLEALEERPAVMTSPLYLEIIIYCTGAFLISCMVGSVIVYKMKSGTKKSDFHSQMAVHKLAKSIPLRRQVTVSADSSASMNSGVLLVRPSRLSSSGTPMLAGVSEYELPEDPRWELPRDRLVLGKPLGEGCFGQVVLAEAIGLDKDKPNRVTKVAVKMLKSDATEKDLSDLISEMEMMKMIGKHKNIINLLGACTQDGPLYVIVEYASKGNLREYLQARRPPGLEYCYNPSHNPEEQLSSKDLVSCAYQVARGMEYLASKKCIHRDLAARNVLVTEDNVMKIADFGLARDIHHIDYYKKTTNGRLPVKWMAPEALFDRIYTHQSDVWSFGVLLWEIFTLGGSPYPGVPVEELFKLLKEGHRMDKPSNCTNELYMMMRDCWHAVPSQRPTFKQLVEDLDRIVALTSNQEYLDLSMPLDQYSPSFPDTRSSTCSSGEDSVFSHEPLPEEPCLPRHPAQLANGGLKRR
# test name: Transcreener Kinase Assay of FGFR1
# Type: biochemical
# measurement context: FP
Quick note: pIC50 values are minus log10 of concentrations in mol/L.

Example molecules with recorded pIC50:
Provide the documented pIC50 with Recombinant human FGFR1 (Homo sapiens, UniProt P11362) as the system for CNC(=O)c1cc(COc2cnc(Nc3ccc(O[C@@H]4O[C@H](CO)[C@@H](O)[C@H](O)[C@H]4O)cc3)nc2)c(Cl)c(OC)c1
7.96

And for CNC(=O)c1cc(OC)c(Cl)c(COc2cnc(Nc3ccc(N4C[C@@H](C)N[C@@H](C)C4)cc3)nc2)c1F ?
8.00

And for CCN1[C@H](C)CN(c2ccc(Nc3ncc(OCc4cc(C(=O)NC)cc(OC)c4F)cn3)cn2)C[C@@H]1C ?
7.72

And for CNC(=O)c1cc(COc2cnc(Nc3cnc(N4C[C@@H](C)N[C@@H](C)C4)c(F)c3)nc2)c(Cl)c(OC)c1 ?
7.89

And for CNC(=O)c1cc(OC)c(Cl)c(COc2cnc(Nc3ccc(N4C[C@@H](C)N[C@@H](C)C4)c(F)c3)nc2)c1F ?
8.22

New cases:
Provide the documented pIC50 with Recombinant human FGFR1 (Homo sapiens, UniProt P11362) as the system for CNC(=O)c1cc(COc2cnc(Nc3ccc(N4C[C@@H]5CCN(C)[C@@H]5C4)c(OC)c3)nc2)c(F)c(OC)c1
7.74

And for CNC(=O)c1cc(COc2cnc(Nc3ccc(N4CCN(C)CC4)c(OC)c3)nc2)c(Cl)c(OC)c1 ?
8.22
